# Assayed Target: human IgG (human)
# Protocol Notes: SPR (BIAcore T200), peptide immobilised on sensor chip, human IgG injected
Result Type: Kd (nM)
The answer is to be given in nM; state only the numeric part.

Query block: For GPDCAYHRGELVWCTFH [peptide (amino acid sequence: SEQ ID NO: 18) prepared by chemical synthesis] , write its Kd.
Result block: 14
